Attribution: patent US20260007601A1

Catalogue of Total RNA concentration readings, one per entry.
assay: Encapsulation rate, drug loading concentration and total RNA concentration detection (RiboGreen); format: physicochemical; conditions: LNP formulation of the named lipid

{"compound": "CCCCCCC(CCCCCC)CCOC(=O)CCCCCCCN(CCO)CCCCCCCC(=O)OCCC(CCCCCC)CCCCCC [Compound 23, reference compound]", "Total RNA concentration, µg/mL": 32.51}
{"compound": "CCCCCCCCC(CCCCCCCC)COC(=O)CCCCCN(CCCCCC(=O)OCC(CCCCCCCC)CCCCCCCC)CCN(C)CCNC", "Total RNA concentration, µg/mL": 38.16}
{"compound": "CCCCCCCCCCCOC(=O)CCCCCN(CCCCCCCC(=O)OC(CCCCCCCC)CCCCCCCC)CCN(C)CCNC", "Total RNA concentration, µg/mL": 27.43}
{"compound": "CCCCCCCCC(CCCCCCCC)OC(=O)CCCCCN(CCCCCC(=O)OC(CCCCCCCC)CCCCCCCC)CCN(C)CCO", "Total RNA concentration, µg/mL": 42.62}
{"compound": "CCCCCCCCCCCOC(=O)CCCCCN(CCCCCCCC(=O)OC(CCCCCCCC)CCCCCCCC)CCN(C)CCOC", "Total RNA concentration, µg/mL": 43.13}
{"compound": "CCCCCCCCC(CCCCCCCC)COC(=O)CCCCCN(CCCCCC(=O)OCC(CCCCCCCC)CCCCCCCC)CCN(C)CCO", "Total RNA concentration, µg/mL": 43.42}
{"compound": "CCCCCCCCCCCOC(=O)CCCCCN(CCCCCCCC(=O)OC(CCCCCCC)CCCCCCC)CCN(CC)CCO", "Total RNA concentration, µg/mL": 43.92}

###

Parameter drug loading concentration, times that of compound 23: see the listing below.
assay: Encapsulation rate, drug loading concentration and total RNA concentration detection (RiboGreen); type: physicochemical
parameter: drug loading concentration, times that of compound 23 (times)

{"compound": "CCCCCCCCCCOC(=O)CCCN(CCCCCC(=O)OCC(CCCCCCCC)CCCCCCCC)CCN(C)CCO [YK-207]", "recorded.value": 1.91}
{"compound": "CCCCCCCCCCCOC(=O)CCCCCN(CCCCCCCC(=O)OC(CCCCCCCC)CCCCCCCC)CCN(C)CCO [YK-201]", "recorded.value": 1.95}
{"compound": "CCCCCCCCCCCOC(=O)CCCCCN(CCCCCCCC(=O)OCC(CCCCCCCC)CCCCCCCC)CCN(C)CCO [YK-202]", "recorded.value": 1.79}
{"compound": "CCCCCCCCCCCOC(=O)CCCCCN(CCCCCCCC(=O)OC(CCCCCCC)CCCCCCC)CCN(C)CCO [YK-206]", "recorded.value": 1.84}

###

system: 293T cells; assay: Cell survival rate assay (CCK-8); type: cell-based; settings: difference of rates
parameter: cell survival rate higher than that of HHMA (%)

{"compound": "CCCCCCCCCCOC(=O)CCCN(CCCCCC(=O)OCC(CCCCCCCC)CCCCCCCC)CCN(C)CCO [YK-207]", "recorded.value": 8.32}
{"compound": "CCCCCCCCCCCOC(=O)CCCCCN(CCCCCCCC(=O)OC(CCCCCCCC)CCCCCCCC)CCN(C)CCO [YK-201]", "recorded.value": 10.37}
{"compound": "CCCCCCCCCCCOC(=O)CCCCCN(CCCCCCCC(=O)OC(CCCCCCC)CCCCCCC)CCN(C)CCO [YK-206]", "recorded.value": 9.01}
{"compound": "CCCCCCCCC(CCCCCCCC)COC(=O)CCCCCN(CCCCCC(=O)OCC(CCCCCCCC)CCCCCCCC)CCN(C)CCO [YK-209]", "recorded.value": 11.13}
{"compound": "CCCCCCCCCCCOC(=O)CCCCCN(CCCCCCCC(=O)OCC(CCCCCCCC)CCCCCCCC)CCN(C)CCO [YK-202]", "recorded.value": 11.25}

###

test system: 293T cells; assay: Fluorescence detection of Fluc-mRNA (cell transfection efficiency of LNP formulations); assay type: cell-based; settings: Fluc-mRNA LNP
parameter: fluorescence absorption value / cell transfection efficiency, times that of YK-205

{"compound": "CCCCCCCCC(CCCCCCCC)COC(=O)CCCCCN(CCCCCC(=O)OCC(CCCCCCCC)CCCCCCCC)CCN(C)CCO [YK-209]", "recorded.value": "20.46 times"}
{"compound": "CCCCCCCCCCCOC(=O)CCCCCN(CCCCCCCC(=O)OCC(CCCCCCCC)CCCCCCCC)CCN(C)CCO [YK-202]", "recorded.value": "29.11 times"}
{"compound": "CCCCCCCCCCCOC(=O)CCCCCN(CCCCCCCC(=O)OC(CCCCCCCC)CCCCCCCC)CCN(C)CCO [YK-201]", "recorded.value": "27.68 times"}
{"compound": "CCCCCCCCCCCOC(=O)CCCCCN(CCCCCCCC(=O)OC(CCCCCCC)CCCCCCC)CCN(C)CCO [YK-206]", "recorded.value": "20.29 times"}

###

Measured Multiples of values that equivalent to YK-202 accompanies every entry in the list below.
test system: 293T cells; assay: Fluorescence detection of Fluc-mRNA (cell transfection efficiency of LNP formulations); type: cell-based; conditions: RLU of YK-202 / RLU of the named lipid
parameter: Multiples of values that equivalent to YK-202

{"compound": "CCCCCCC(CCCCCC)CCOC(=O)CCCCCN(CCCCCC(=O)OCCC(CCCCCC)CCCCCC)CCN(C)CCO [YK-211]", "recorded.value": 21.87}
{"compound": "CCCCCCCCC(CCCCCCCC)OC(=O)CCCCCN(CCCCCC(=O)OC(CCCCCCCC)CCCCCCCC)CCN(C)CCO [YK-210]", "recorded.value": 6.47}
{"compound": "CCCCCCCCCCCCC(O)CN(C)CCCCCC(=O)OCC(CCCCCC)CCCCCCCC (stereo not drawn) [HHMA, reference compound]", "recorded.value": 14.27}
{"compound": "CCCCCCCCCCOC(=O)CCCN(CCCCCC(=O)OCCC(CCCCCC)CCCCCC)C(=O)SCCCN(C)C [YK-220]", "recorded.value": 138.44}
{"compound": "CCCCCCCCC(CCCCCCCC)COC(=O)CCCCCN(CCCCCC(=O)OCC(CCCCCCCC)CCCCCCCC)CCN(C)CCNC [YK-223]", "recorded.value": 399.37}
{"compound": "CCCCCCCCCCCOC(=O)CCCCCN(CCCCC(=O)OCC(CCCCCCCC)CCCCCCCC)CCNCC [YK-226]", "recorded.value": 519.55}
{"compound": "CCCCCCCCCCCOC(=O)CCCCCN(CCCCCCCC(=O)OC(CCCCCCCC)CCCCCCCC)CCN(C)CCNC [YK-222]", "recorded.value": 49.41}
{"compound": "CCCCCCCCCCOC(=O)CCCN(CCCCCC(=O)OCC(CCCCCCCC)CCCCCCCC)CCOC(=O)SCCCN(C)C [YK-218]", "recorded.value": 49.35}
{"compound": "CCCCCCC(CCCCCC)CCOC(=O)CCCCCN(CCCCCC(=O)OCCC(CCCCCC)CCCCCC)CCN(C)CCNC [YK-225]", "recorded.value": 1145.82}
{"compound": "CCCCCCCCCCOC(=O)CCCN(CCCCCC(=O)OCC(CCCCCCCC)CCCCCCCC)CCN(C)CCNC [YK-221]", "recorded.value": 1071.44}
{"compound": "CCCCCCCCC(CCCCCCCC)OC(=O)CCCCCN(CCCCCC(=O)OC(CCCCCCCC)CCCCCCCC)CCN(C)CCNC [YK-224]", "recorded.value": 340.35}
{"compound": "CCCCCCCCCCOC(=O)CCCN(CCCCCC(=O)OCC(CCCCCCCC)CCCCCCCC)CCN(C)CCO [YK-207]", "recorded.value": 1.43}
{"compound": "CCCCCCCCCCOC(=O)CCCN(CCCCCC(=O)OCCC(CCCCCC)CCCCCC)CCOC(=O)SCCCN(C)C [YK-217]", "recorded.value": 416.94}
{"compound": "CCCCCCCCCCOC(=O)CCCN(CCCCCC(=O)OCC(CCCCCCCC)CCCCCCCC)CCN(CC)CCO [YK-208]", "recorded.value": 7.76}
{"compound": "CCCCCCCCC(CCCCCCCC)COC(=O)CCCCCN(CCCCCC(=O)OCC(CCCCCCCC)CCCCCCCC)CCN(CCO)CCO [YK-212]", "recorded.value": 7.66}

###

Assay: Particle size and polydispersity index (PDI) of nanolipid particles, dynamic light scattering
Assay type: physicochemical
Details: LNP formulation prepared from the named cationic lipid, 25° C
Protocol: The particle size and polydispersity index (PDI) were determined by dynamic light scattering method using a Malvern laser particle size analyzer. 10 μL of liposome solution was diluted to 1 mL with RNase-free deionized water and added to a sample pool. Each sample was measured three times. The measurement conditions were: 90° scattering angle, 25° C.

{"compound": "CCCCCCCCC(CCCCCCCC)OC(=O)CCCCCN(CCCCCC(=O)OC(CCCCCCCC)CCCCCCCC)CCN(C)CCO", "display.unit": "%", "PDI": 22.9}
{"compound": "CCCCCCCCCCCOC(=O)CCCCCN(CCCCCCCC(=O)OCCC(CCCCCC)CCCCCC)CCN(C)CCO", "display.unit": "%", "PDI": 23.7}
{"compound": "CCCCCCCCCCOC(=O)CCCN(CCCCCC(=O)OCCC(CCCCCC)CCCCCC)C(=O)SCCCN(C)C", "display.unit": "%", "PDI": 26.6}
{"compound": "CCCCCCCCCCCOC(=O)CCCCCN(CCCCCCCC(=O)OC(CCCCCCCC)CCCCCCCC)CCN(C)CCOC", "display.unit": "%", "PDI": 20.8}
{"compound": "CCCCCCC(CCCCCC)CCOC(=O)CCCCCN(CCCCCC(=O)OCCC(CCCCCC)CCCCCC)CCN(CCO)CCO", "display.unit": "%", "PDI": 31.5}
{"compound": "CCCCCCCCC(CCCCCCCC)COC(=O)CCCCCN(CCCCCC(=O)OCC(CCCCCCCC)CCCCCCCC)CCN(CCO)CCO", "display.unit": "%", "PDI": 19.2}
{"compound": "CCCCCCC(CCCCCC)CCOC(=O)CCCCCN(CCCCCC(=O)OCCC(CCCCCC)CCCCCC)CCN(C)CCNC", "display.unit": "%", "PDI": 19.3}
{"compound": "CCCCCCCCCCCOC(=O)CCCCCN(CCO)CCCCCCCC(=O)OC(CCCCCCCC)CCCCCCCC [SM-102, reference compound]", "display.unit": "%", "PDI": 19.2}
